Quick reference for pKd among some binders
Target: T1, human IL-18BP (human, UniProt O95998 31-194)
T1 construct: UniProt printed as 095998; also called hIL-18BP
T1 sequence: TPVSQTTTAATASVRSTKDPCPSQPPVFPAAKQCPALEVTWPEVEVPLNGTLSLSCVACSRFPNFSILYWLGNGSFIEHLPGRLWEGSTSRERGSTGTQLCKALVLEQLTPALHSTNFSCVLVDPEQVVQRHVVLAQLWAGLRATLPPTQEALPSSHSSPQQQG
Test: BLI, apparent KD
Lab note: report pKd as minus log10 of the concentration in molar units, number only.

Take a look at these entries with their results.
SA302a HC-S31P (antibody, V domains shown) VH: QVQLQESGPGLVKPSQTLSLTCTVSGYSITPDYNAHWIRQPPGKGLEWIGYIHYSGSTNYNPSLKSRVTISRDTSKNQFSLKLSSVTAADTAVYYCARNYGSIYVNYFDYWGQGTLVTVSS VL: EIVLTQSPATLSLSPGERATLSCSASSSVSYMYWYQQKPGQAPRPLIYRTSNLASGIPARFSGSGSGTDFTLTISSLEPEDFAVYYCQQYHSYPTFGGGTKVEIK | 8.36
SA302a HC-T30N (antibody, V domains shown) VH: QVQLQESGPGLVKPSQTLSLTCTVSGYSINSDYNAHWIRQPPGKGLEWIGYIHYSGSTNYNPSLKSRVTISRDTSKNQFSLKLSSVTAADTAVYYCARNYGSIYVNYFDYWGQGTLVTVSS VL: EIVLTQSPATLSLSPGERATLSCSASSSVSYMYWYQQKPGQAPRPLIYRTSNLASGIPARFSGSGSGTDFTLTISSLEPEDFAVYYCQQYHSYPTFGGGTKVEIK | 8.82
SA302a HC-H35M (antibody, V domains shown, IgG1 kappa) VH: QVQLQESGPGLVKPSQTLSLTCTVSGYSITSDYNAMWIRQPPGKGLEWIGYIHYSGSTNYNPSLKSRVTISRDTSKNQFSLKLSSVTAADTAVYYCARNYGSIYVNYFDYWGQGTLVTVSS VL: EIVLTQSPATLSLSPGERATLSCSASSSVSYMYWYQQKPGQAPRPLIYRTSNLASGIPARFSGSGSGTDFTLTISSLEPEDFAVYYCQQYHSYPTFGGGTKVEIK | 8.66
SA302a HC-N33bK (antibody, V domains shown) VH: QVQLQESGPGLVKPSQTLSLTCTVSGYSITSDYKAHWIRQPPGKGLEWIGYIHYSGSTNYNPSLKSRVTISRDTSKNQFSLKLSSVTAADTAVYYCARNYGSIYVNYFDYWGQGTLVTVSS VL: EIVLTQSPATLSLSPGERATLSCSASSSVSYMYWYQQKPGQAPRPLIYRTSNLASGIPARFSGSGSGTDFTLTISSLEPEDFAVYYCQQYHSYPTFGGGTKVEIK | 8.95
SA302a HC-D33Y (antibody, V domains shown, IgG1 kappa) VH: QVQLQESGPGLVKPSQTLSLTCTVSGYSITSYYNAHWIRQPPGKGLEWIGYIHYSGSTNYNPSLKSRVTISRDTSKNQFSLKLSSVTAADTAVYYCARNYGSIYVNYFDYWGQGTLVTVSS VL: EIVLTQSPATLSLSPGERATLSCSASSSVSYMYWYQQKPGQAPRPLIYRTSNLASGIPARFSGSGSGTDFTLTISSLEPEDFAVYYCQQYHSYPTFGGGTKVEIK | 8.42

Incoming: Report pKd, nothing else, for this binder: SA302a HC-T30M (antibody, V domains shown) VH: QVQLQESGPGLVKPSQTLSLTCTVSGYSIMSDYNAHWIRQPPGKGLEWIGYIHYSGSTNYNPSLKSRVTISRDTSKNQFSLKLSSVTAADTAVYYCARNYGSIYVNYFDYWGQGTLVTVSS VL: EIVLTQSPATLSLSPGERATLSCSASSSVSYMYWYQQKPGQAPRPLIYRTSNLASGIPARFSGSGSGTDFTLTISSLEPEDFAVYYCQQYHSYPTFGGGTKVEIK
Outgoing: 8.81

Incoming: Report pKd, nothing else, for this binder: SA302a HC-N33bT (antibody, V domains shown) VH: QVQLQESGPGLVKPSQTLSLTCTVSGYSITSDYTAHWIRQPPGKGLEWIGYIHYSGSTNYNPSLKSRVTISRDTSKNQFSLKLSSVTAADTAVYYCARNYGSIYVNYFDYWGQGTLVTVSS VL: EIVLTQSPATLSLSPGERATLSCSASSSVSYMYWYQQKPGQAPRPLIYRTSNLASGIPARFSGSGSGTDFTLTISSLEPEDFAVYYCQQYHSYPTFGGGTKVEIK
Outgoing: 8.79

Incoming: Report pKd, nothing else, for this binder: SA302a HC-T30A (antibody, V domains shown) VH: QVQLQESGPGLVKPSQTLSLTCTVSGYSIASDYNAHWIRQPPGKGLEWIGYIHYSGSTNYNPSLKSRVTISRDTSKNQFSLKLSSVTAADTAVYYCARNYGSIYVNYFDYWGQGTLVTVSS VL: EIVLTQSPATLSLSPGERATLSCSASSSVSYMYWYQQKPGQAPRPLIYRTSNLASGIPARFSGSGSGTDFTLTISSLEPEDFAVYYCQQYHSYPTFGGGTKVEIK
Outgoing: 8.88

Incoming: Report pKd, nothing else, for this binder: SA302a HC-S31I (antibody, V domains shown) VH: QVQLQESGPGLVKPSQTLSLTCTVSGYSITIDYNAHWIRQPPGKGLEWIGYIHYSGSTNYNPSLKSRVTISRDTSKNQFSLKLSSVTAADTAVYYCARNYGSIYVNYFDYWGQGTLVTVSS VL: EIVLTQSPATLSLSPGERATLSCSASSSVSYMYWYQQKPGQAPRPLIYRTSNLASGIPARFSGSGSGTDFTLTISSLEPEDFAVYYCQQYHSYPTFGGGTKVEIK
Outgoing: 9.00

Incoming: Report pKd, nothing else, for this binder: SA302a HC-N33bQ (antibody, V domains shown) VH: QVQLQESGPGLVKPSQTLSLTCTVSGYSITSDYQAHWIRQPPGKGLEWIGYIHYSGSTNYNPSLKSRVTISRDTSKNQFSLKLSSVTAADTAVYYCARNYGSIYVNYFDYWGQGTLVTVSS VL: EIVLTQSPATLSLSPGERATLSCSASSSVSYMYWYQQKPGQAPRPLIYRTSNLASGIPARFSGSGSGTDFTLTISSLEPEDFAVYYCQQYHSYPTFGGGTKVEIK
Outgoing: 8.22
